These data points were gathered from patent US7741350B1.

# MEASURED ON: human CB2 receptor (hCB2) (Homo sapiens, UniProt P34972)
# Sequence (P34972 whole entry): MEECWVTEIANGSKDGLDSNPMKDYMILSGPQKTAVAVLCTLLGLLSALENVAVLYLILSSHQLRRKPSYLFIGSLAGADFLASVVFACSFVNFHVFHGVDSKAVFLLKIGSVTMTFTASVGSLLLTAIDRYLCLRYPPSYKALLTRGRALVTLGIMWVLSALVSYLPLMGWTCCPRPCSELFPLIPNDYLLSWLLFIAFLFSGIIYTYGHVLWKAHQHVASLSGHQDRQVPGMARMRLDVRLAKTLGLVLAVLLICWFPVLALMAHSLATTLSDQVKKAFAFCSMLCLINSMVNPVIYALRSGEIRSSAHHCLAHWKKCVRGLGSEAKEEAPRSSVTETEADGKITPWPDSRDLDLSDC
# ASSAY OVERVIEW: cAMP assay at human CB2 receptor
# Assay type: cell-based
# APPLIED CONDITIONS: hCB2R; maximum measurable range 30 μM; read-out: EC50 (Potency at Human CB2 determined by cAMP Assay)
Please respond with reported EC50 for every item in the list.

Ask: // returns reported EC50 for input `CN1CCc2c(c(-c3cc(F)ccc3F)nn2C(=O)N[C@H](CO)C(C)(C)C)C1`
Reply: > 1000 nM

Ask: // returns reported EC50 for input `CC(C)(C)c1csc(NC(=O)n2nc(-c3ccc(F)c(F)c3)c3c2CCOC3)n1`
Reply: < 1000 nM

Ask: // returns reported EC50 for input `CCOC(=O)N1CCN(C(=O)[C@@H](NC(=O)n2nc(-c3cc(F)c(F)cc3F)c3c2CCN(C)C3)C(C)(C)C)CC1`
Reply: > 1000 nM

Ask: // returns reported EC50 for input `CN1CCc2c(c(-c3ccc(F)c(F)c3)nn2C(=O)N[C@H](C(=O)N2CC[C@H](O)C2)C(C)(C)C)C1`
Reply: > 1000 nM

----------
# MEASURED ON: human CB2 receptor (hCB2) (Homo sapiens)
# ASSAY OVERVIEW: cAMP assay at human CB2 receptor
# Type: cell-based
# APPLIED CONDITIONS: EC50 (Potency at Human CB2 determined by cAMP Assay), hCB2R; maximum measurable range 30 μM
pEC50: −log10 of the molar value.
Please respond with reported pEC50 for every item in the list.

Ask: // returns reported pEC50 for input `CNC(=O)[C@@H](NC(=O)n1nc(-c2ccc(F)c(F)c2)c2c1CCC1(C2)OCCO1)C(C)(C)C`
Reply: > 6.00

Ask: // returns reported pEC50 for input `CN1CCc2c(c(-c3ccc(F)c(F)c3)nn2C(=O)N[C@H](C(=O)NCCO)C(C)(C)C)C1`
Reply: > 6.00

Ask: // returns reported pEC50 for input `CNC(=O)[C@@H](NC(=O)n1nc(-c2cc(F)c(F)cc2F)c2c1CCCN2C)C(C)(C)C`
Reply: > 6.00

Ask: // returns reported pEC50 for input `CNC(=O)[C@@H](NC(=O)n1nc(-c2cc(F)c(F)cc2F)c2c1CCN(CCO)C2)C(C)(C)C`
Reply: > 6.00

----------
# MEASURED ON: human CB1 receptor (hCB1) (Homo sapiens)
# ASSAY OVERVIEW: cAMP assay at human CB1 receptor
# APPLIED CONDITIONS: hCB1R; maximum measurable range 30 μM; read-out: EC50 (Potency at Human CB1 determined by cAMP Assay)
pEC50: −log10 of the molar value.
REPORTED ENDPOINT: pEC50

Ask: // returns reported pEC50 for input `CNC(=O)[C@@H](NC(=O)n1nc(-c2ccc(F)c(F)c2)c2c1CCCC2)C(C)(C)C`
Reply: > 6.00

Ask: // returns reported pEC50 for input `CCN1CCc2c(c(-c3cc(F)ccc3F)nn2C(=O)N[C@H](C(=O)NC)C(C)(C)C)C1`
Reply: > 6.00

Ask: // returns reported pEC50 for input CNC(=O)[C@@H](NC(=O)n1nc(-c2ccc(F)c(F)c2)c2c1CCC(O)C2)C(C)(C)C (mixture of isomers)
Reply: > 6.00

Ask: // returns reported pEC50 for input `CC(C)(C)c1csc(NC(=O)n2nc(-c3ccc(F)c(F)c3)c3c2CCOC3)n1`
Reply: > 6.00

Ask: // returns reported pEC50 for input `CN1CCc2c(c(-c3cc(F)c(F)cc3F)nn2C(=O)N[C@H](C(=O)NCCC(N)=O)C(C)(C)C)C1`
Reply: > 6.00

Ask: // returns reported pEC50 for input `CN1CCc2c(c(-c3ccc(F)c(F)c3)nn2C(=O)N[C@H](C(=O)NCCO)C(C)(C)C)C1`
Reply: > 6.00

Ask: // returns reported pEC50 for input `CNC(=O)[C@@H](NC(=O)n1nc(-c2ccc(F)cc2)c2c1CCNC2)C(C)(C)C`
Reply: > 6.00

Ask: // returns reported pEC50 for input `CNC(=O)[C@@H](NC(=O)n1nc(-c2ccc(F)c(F)c2)c2c1CCCCN2C)C(C)(C)C`
Reply: > 6.00

Ask: // returns reported pEC50 for input `CN1CCc2c(-c3cc(F)ccc3F)nn(C(=O)N[C@H](C(=O)NCCO)C(C)(C)C)c2C1`
Reply: > 6.00

----------
Please respond with reported EC50 for every item in the list.
# MEASURED ON: human CB1 receptor (hCB1) (Homo sapiens, UniProt P21554)
# Sequence (P21554 whole entry): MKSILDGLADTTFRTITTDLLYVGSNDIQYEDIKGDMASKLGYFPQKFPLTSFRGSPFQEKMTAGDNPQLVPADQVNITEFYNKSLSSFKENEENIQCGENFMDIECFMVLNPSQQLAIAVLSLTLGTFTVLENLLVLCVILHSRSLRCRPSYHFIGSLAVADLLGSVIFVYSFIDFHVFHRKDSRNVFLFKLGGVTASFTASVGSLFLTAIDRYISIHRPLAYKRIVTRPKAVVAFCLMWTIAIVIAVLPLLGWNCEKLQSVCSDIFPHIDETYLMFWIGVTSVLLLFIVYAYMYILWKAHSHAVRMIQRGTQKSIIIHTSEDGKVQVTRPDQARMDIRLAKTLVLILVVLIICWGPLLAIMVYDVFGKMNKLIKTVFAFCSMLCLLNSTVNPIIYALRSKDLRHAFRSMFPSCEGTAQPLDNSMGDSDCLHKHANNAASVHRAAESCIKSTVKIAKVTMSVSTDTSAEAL
# ASSAY OVERVIEW: cAMP assay at human CB1 receptor
# Type: cell-based
# APPLIED CONDITIONS: hCB1R; maximum measurable range 30 μM; read-out: EC50 (Potency at Human CB1 determined by cAMP Assay)

Ask: // returns reported EC50 for input `CNC(=O)[C@@H](NC(=O)n1nc(-c2ccc(F)c(F)c2)c2c1CCCN2C)C(C)(C)C`
Reply: < 1000 nM

Ask: // returns reported EC50 for input `CN1CCN(C(=O)[C@@H](NC(=O)n2nc(-c3cc(F)c(F)cc3F)c3c2CCOC3)C(C)(C)C)CC1`
Reply: < 1000 nM

Ask: // returns reported EC50 for input `CNC(=O)[C@@H](NC(=O)n1nc(-c2cc(F)c(F)cc2F)c2c1CCN(C)C2)C(C)(C)C`
Reply: < 1000 nM

Ask: // returns reported EC50 for input `CC(C)(C)[C@H](NC(=O)n1nc(-c2ccc(F)c(F)c2)c2c1CCOC2)C(=O)N1CC[C@H](O)C1`
Reply: < 1000 nM

Ask: // returns reported EC50 for input `CC(C)(C)[C@H](NC(=O)n1nc(-c2ccc(F)c(F)c2)c2c1CCOC2)C(N)=O`
Reply: < 1000 nM

Ask: // returns reported EC50 for input `CCN1CCc2c(c(-c3cc(F)ccc3F)nn2C(=O)N[C@H](C(=O)O)C(C)(C)C)C1`
Reply: > 30000 nM

Ask: // returns reported EC50 for input `CNC(=O)[C@@H](NC(=O)n1nc(-c2cc(F)c(F)cc2F)c2c1CN(C)CC2)C(C)(C)C`
Reply: < 1000 nM

Ask: // returns reported EC50 for input `CNC(=O)[C@@H](NC(=O)n1nc(-c2cc(F)c(F)cc2F)c2c1CCCN2C)C(C)(C)C`
Reply: < 1000 nM

Ask: // returns reported EC50 for input `CNC(=O)[C@@H](NC(=O)n1nc(C(C)(C)C)c2c1CCN(C)C2)C(C)(C)C`
Reply: > 1000 nM

Ask: // returns reported EC50 for input `CN1CCc2c(c(-c3cc(F)c(F)cc3F)nn2C(=O)N[C@H](C(N)=O)C(C)(C)C)C1`
Reply: < 1000 nM

Ask: // returns reported EC50 for input `CN1CCc2c(c(-c3ccc(F)c(F)c3)nn2C(=O)N[C@H](CO)C(C)(C)C)C1`
Reply: > 1000 nM

Ask: // returns reported EC50 for input `CNC(=O)[C@@H](NC(=O)n1nc(-c2ccc(F)c(F)c2)c2c1CCNC2)C(C)(C)C`
Reply: < 1000 nM

Ask: // returns reported EC50 for input `CN1CCc2c(c(-c3cc(F)c(F)cc3F)nn2C(=O)N[C@H](C(=O)N2CCC[C@H]2C(N)=O)C(C)(C)C)C1`
Reply: < 1000 nM

Ask: // returns reported EC50 for input `CN1CCc2c(c(-c3cc(F)c(F)cc3F)nn2C(=O)N[C@H](C(=O)NCCO)C(C)(C)C)C1`
Reply: < 1000 nM

Ask: // returns reported EC50 for input `CNC(=O)[C@@H](NC(=O)n1nc(-c2cc(F)c(F)cc2F)c2c1CCNC2)C(C)(C)C`
Reply: < 1000 nM

----------
# MEASURED ON: human CB2 receptor (hCB2) (Homo sapiens)
# ASSAY OVERVIEW: cAMP assay at human CB2 receptor
# Type: cell-based
# APPLIED CONDITIONS: hCB2R; maximum measurable range 30 μM; read-out: EC50 (Potency at Human CB2 determined by cAMP Assay)
pEC50: −log10 of the molar value.
Please respond with reported pEC50 for every item in the list.

Ask: // returns reported pEC50 for input CNC(=O)[C@@H]1CCCN1C(=O)[C@@H](NC(=O)n1nc(-c2cc(F)c(F)cc2F)c2c1CCN(C)C2)C(C)(C)C [Compound 76]
Reply: < 6.00

Ask: // returns reported pEC50 for input CN1CCc2c(c(-c3ccc(F)c(F)c3)nn2C(=O)N2CCC(O)CC2)C1 [Compound 45]
Reply: < 6.00

Ask: // returns reported pEC50 for input CNC(=O)[C@@H](NC(=O)n1nc(-c2ccc(C(F)(F)F)cc2F)c2c1CCN(C)C2)C(C)(C)C [Compound 43]
Reply: < 6.00

Ask: // returns reported pEC50 for input CN1CCc2c(c(-c3cc(F)c(F)cc3F)nn2C(=O)N[C@H](C(=O)N2CCC(C(N)=O)CC2)C(C)(C)C)C1 [Compound 79]
Reply: < 6.00

Ask: // returns reported pEC50 for input CN1CCc2c(c(-c3cc(F)ccc3F)nn2C(=O)N[C@H](C(=O)O)C(C)(C)C)C1 [Compound 81]
Reply: < 4.52

Ask: // returns reported pEC50 for input CN1CCc2c(c(-c3cc(F)c(F)cc3F)nn2C(=O)N[C@H](C(=O)N2CCC[C@H](O)C2)C(C)(C)C)C1 [Compound 78]
Reply: < 6.00

Ask: // returns reported pEC50 for input CNC(=O)[C@@H](NC(=O)n1nc(-c2cc(F)ccc2F)c2c1CCN(C)C2)C(C)(C)C [Compound 64]
Reply: < 6.00

Ask: // returns reported pEC50 for input CN1CCc2c(c(-c3cc(F)c(F)cc3F)nn2C(=O)N[C@H](C(=O)NCCCO)C(C)(C)C)C1 [Compound 80]
Reply: < 6.00

Ask: // returns reported pEC50 for input CN1CCc2c(c(-c3cc(F)c(F)cc3F)nn2C(=O)N[C@H](C(=O)NCCC(N)=O)C(C)(C)C)C1 [Compound 73]
Reply: < 6.00

Ask: // returns reported pEC50 for input CN1CCc2c(c(-c3ccc(F)c(F)c3)nn2C(=O)NC(C)(C)C)C1 [Compound 46]
Reply: < 6.00

Ask: // returns reported pEC50 for input CC(C)(C)[C@H](NC(=O)n1nc(-c2ccc(Cl)cc2F)c2c1CCOC2)C(=O)NCCO [Compound 88]
Reply: > 6.00

Ask: // returns reported pEC50 for input CN1CCc2c(c(-c3cc(F)c(F)cc3F)nn2C(=O)N[C@H](C(=O)N2CCC[C@@H]2C(N)=O)C(C)(C)C)C1 [Compound 75]
Reply: < 6.00

Ask: // returns reported pEC50 for input CC(C)(C)[C@H](NC(=O)n1nc(-c2ccc(F)c(F)c2)c2c1CCOC2)C(N)=O [Compound 99]
Reply: < 6.00

Ask: // returns reported pEC50 for input CNC(=O)[C@@H](NC(=O)n1nc(-c2ccc(F)c(F)c2)c2c1CCCN2CCO)C(C)(C)C [Compound 101]
Reply: > 6.00

Ask: // returns reported pEC50 for input CN1CCCc2c1c(-c1ccc(F)c(F)c1)nn2C(=O)N[C@H](C(=O)NCCO)C(C)(C)C [Compound 91]
Reply: > 6.00
